Readings of Kd for the listed binders
# TARGET_OF_ASSAY: N501Y mutant RBD (SARS-CoV-2 Alpha (B.1.1.7), RBD N501Y, N501Y)
# TEST_NAME: BLI
Reply with the number, then its unit.

Below, each entry is followed by its recorded Kd result.
# BINDER, MEASURED_RESULT
rows = [
    ("Y1.10 (scFv, V domains shown) VH: QVQLQQSGAEVKKPGSSVKVSCKASGGTFGNWTISWVRQAPGQGLEWMGGIGPRQGEATYAQKFQGRVTITTDESTSTAYMELSSLRSEDTAVYYCARETWYTSGGMDVWGQGTTVTVSS VL: SYELTQPPSVSVAPGKTARITCGGNNIGRKSVHWYQQKPGQAPVLVVYDDSDRPSGIPERFSGSNSGNTATLTISRVEAGDEADYYCQVYDLWSSDYVFGTGTKVEIK", "842 nM"),
    ("Y2.1 (scFv, V domains shown) VH: QVQLQQSGAEVKKPGSSVKVSCKASGGTFGNWSISWVRQAPGQGLEWMGGIVPRDGEATYAQKFQGRVTITTDESTSTAYMELSSLRSEDTAVYYCARETWYTSGGMDVWGQGTTVTVSS VL: SYELTQPPSVSVAPGKTARITCGGNNIGRKSVHWYQQKPGQAPVLVVYDDSDRPSGIPERFSGSNSGNTATLTISRVEAGDEADYYCQVYDLWSSDYVFGTGTKVEIK", "30.8 nM"),
]

Now consider the entry below.
Q. Name the reported Kd value associated with the binder Y4.1 (scFv, V domains shown) VH: QVQLQQSGAEVKKPGSSVKVSCKASGGTFGNWTISWVRQAPGQGLEWMGGIAPTRGEATYAQKFQGRVTITTDESTSTAYMELSSLRSEDTAVYYCARETWYTSGGMDVWGQGTTVTVSS VL: SYELTQPPSVSVAPGKTARITCGGNNIGRKSVHWYQQKPGQAPVLVVYDDSDRPSGIPERFSGSNSGNTATLTISRVEAGDEADYYCQVYDLWSSDYVFGTGTKVEIK
A. 102 nM
